assayed-target: T1, TNFR1 (Homo sapiens, UniProt P19438)
T1 chain: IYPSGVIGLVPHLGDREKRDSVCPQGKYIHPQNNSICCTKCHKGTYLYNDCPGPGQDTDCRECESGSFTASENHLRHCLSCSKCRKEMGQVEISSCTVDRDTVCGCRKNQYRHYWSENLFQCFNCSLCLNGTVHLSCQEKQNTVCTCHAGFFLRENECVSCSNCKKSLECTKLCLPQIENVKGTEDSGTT
experiment-summary: yeast display SC50
outcome-measure: apparent Kd (screen) (pM)

Some entries whose results are on file:
{"binder": "K103W (designed binder) MTLQELLREEALRRAEAEAFRYALELLAEKFPEQKEYLLDLAEEIESQIRSLSGVDVEDVRKFLDKEWAWVKELLAEHPAELAEVEAARAARLAELRAEVEAWVAA", "unit-descriptor": "pM", "apparent Kd (screen)": 718}
{"binder": "K72I (designed binder) MTLQELLREEALRRAEAEAFRYALELLAEKFPEQKEYLLDLAEEIESQIRSLSGVDVEDVRKFLDKEWAWVIELLAEHPAELAEVEAARAARLAELRAEVEAKVAA", "unit-descriptor": "pM", "apparent Kd (screen)": 539}

1: A69N (designed binder) MTLQELLREEALRRAEAEAFRYALELLAEKFPEQKEYLLDLAEEIESQIRSLSGVDVEDVRKFLDKEWNWVKELLAEHPAELAEVEAARAARLAELRAEVEAKVAA
2: L7M (designed binder) MTLQELMREEALRRAEAEAFRYALELLAEKFPEQKEYLLDLAEEIESQIRSLSGVDVEDVRKFLDKEWAWVKELLAEHPAELAEVEAARAARLAELRAEVEAKVAA
Inquiry: Pick one: 1 or 2 . Which one has the lower reported apparent Kd (screen)? The response must carry the label of the picked entry.
Reply text: 1
(1: 653 pM, 2: 2480 pM)
